test system: STAT6 signaling pathway; assay: Inhibition of STAT6-driven reporter gene activity (IL-4 induced luciferase in transfected U937 cells); format: cell-based; details: U-937; U937 cells stably transfected with IL-4 responsive luciferase reporter; 10 ng/ml recombinant human IL-4, 4–5 h; compound added 5 min before IL-4; read-out: IC50 (concentration of compound giving 50 percent inhibition of the luciferase response to addition of IL-4)
READOUT: IC50 (nM)

IN: Data request, read-out IC50, for CC(=O)N1c2ccccc2[C@H](Nc2ccc(C)cc2)C[C@@H]1C (relative stereo)
OUT: 800

a = CC(=O)N1c2ccc(I)cc2[C@H](Nc2ccccc2)C[C@@H]1C (relative stereo)
b = CC(=O)N1c2ccccc2[C@H](Nc2ccc(C#N)cc2)C[C@@H]1C (relative stereo)
IN: Which one would you say has the larger IC50 value: a , or b ? Bench note: the answer is the label of the chosen record.
OUT: b
(b: 430 nM, a: 180 nM)
